Attribution: patent US20240158475A1

pKd reference
molecular target: DN-III quality control recombinant protein (produced by Fapon Biotech InC.) (dengue virus); assay: BLI, AMC sensor, antibody captured
In plain terms, pKd is the concentration in mol/L turned into minus its base-10 logarithm.

Sample records with pKd:
binder | measurement
Mutation 1-14 (antibody, V domains shown) VH: EVQLQQSGTELVRPGALVKLSCKASGFNIKDYYLHWVKQRPRQGLEWIGWIDPENGKTLYDPKFQDKASITSDTSTNTAYLQLRSLTSEDTAVYYCVSAYVRFVYWGQGTLVTVSA VL: QIVLTQSPAIMSAFPGERVTMTCSASTSVRYMYWHQQKPGSSPRLLIYDTSNVASGVPVRFSGSGSGTSYSLTISRDEAMDAATYYCQQWSSFPRTFGGGTKLEIKR | 9.95
Mutation 1-34 (antibody, V domains shown) VH: EVQLQQSGTELVRPGALVKLSCKASGFNIKDYYIHWVKQRPRQGLEWIGWIDPENGKTIYDPKFQDKASITSDTSTNTAYLQLRSLTSEDTAVYYCVSAYVRFVYWGQGTLVTVSA VL: QIVLTQSPAIMSAFPGERVTMTCSASSSVRYMYWHQQKPGSSPRLLIYDTSNLASGVPVRFSGSGSGTSYSLTISRDEAMDAATYYCQQWSSFPRTFGGGTKLEIKR | 9.36
Mutation 1-2 (antibody, V domains shown) VH: EVQLQQSGTELVRPGALVKLSCKASGFNIKDYYLHWVKQRPRQGLEWIGWIDPENGKTLYDPKFQDKASITSDTSTNTAYLQLRSLTSEDTAVYYCVTAYYRFVYWGQGTLVTVSA VL: QIVLTQSPAIMSAFPGERVTMTCSASSSVRYMYWHQQKPGSSPRLLIYDTSNVASGVPVRFSGSGSGTSYSLTISRDEAMDAATYYCQQWSSFPRTFGGGTKLEIKR | 9.99

**Q:** Dear colleague, I am looking for the recorded pKd of the following binder: Mutation 1-39 (antibody, V domains shown) VH: EVQLQQSGTELVRPGALVKLSCKASGFNIKDYYVHWVKQRPRQGLEWIGWIDPENGKTIYDPKFQDKASITSDTSTNTAYLQLRSLTSEDTAVYYCVTAYFRFVYWGQGTLVTVSA VL: QIVLTQSPAIMSAFPGERVTMTCSASTSVRYMYWHQQKPGSSPRLLIYDTSNLASGVPVRFSGSGSGTSYSLTISRDEAMDAATYYCQQWSSFPRTFGGGTKLEIKR
**A:** 9.08

**Q:** One more binder: Mutation 1-29 (antibody, V domains shown) VH: EVQLQQSGTELVRPGALVKLSCKASGFNIKDYYLHWVKQRPRQGLEWIGWIDPENGKTIYDPKFQDKASITSDTSTNTAYLQLRSLTSEDTAVYYCVSAYYRFVYWGQGTLVTVSA VL: QIVLTQSPAIMSAFPGERVTMTCSASTSVRYMYWHQQKPGSSPRLLIYDTSNVASGVPVRFSGSGSGTSYSLTISRDEAMDAATYYCQQWSSYPRTFGGGTKLEIKR
**A:** 9.05
